Where do the numbers come from? From patent US20240408222A1.

Tested on: SUM149
methodSummary: Cytotoxicity assay (Version 2, automated, AC50) with/without neutrophil elastase
Type: cell-based
measurementConditions: SUM149, without (−) neutrophil elastase, Version 2, activity concentration at −50%
Procedure: Cultivation of cells was performed according to standard procedures with the media recommended by the provider. The cells, in a total volume of 100 μL, were seeded in a 96-well plate with a white bottom (#3610). After a 24 h incubation period at 37° C. and […], the medium was exchanged by adding 90 μL fresh medium. […] The proliferation was detected using the MTT assay (ATCC). […] The formed dye was detected at 570 nm. […]
outcomeMeasure: AC50

[ask] # returns recorded AC50 (system: SUM149) for CCCNC(=O)Nc1cccc(S(=O)(=O)Nc2cccc([C@@H](CC(=O)O)NC(=O)Nc3ccc(NC(=O)NCCOCCOCCOCCC(=O)N[C@@H](CC(=O)OCCCCN(C)C)C(=O)N4CCC[C@H]4C(=O)N[C@H](C(=O)N=S(C)(=O)Cc4cc5cc(c4)OCCCCOc4cc(F)ccc4-c4nc(ncc4F)N5)C(C)C)cc3)c2)c1 (single isomer, unassigned)
[reply] 100 to 1000 nM

[ask] # returns recorded AC50 (system: SUM149) for CCCNC(=O)Nc1cccc(S(=O)(=O)Nc2cccc([C@H](CC(=O)O)NC(=O)Nc3ccc(NC(=O)NCCOCCOCCOCCC(=O)NCCCC[C@H](NC(=O)CCOCCOCCOCCNC(=O)Nc4ccc(NC(=O)N[C@@H](CC(=O)O)c5cccc(NS(=O)(=O)c6cccc(NC(=O)NCCC)c6)c5)cc4)C(=O)NCCOCCOCCOCCC(=O)N[C@@H](CC(=O)O)C(=O)N4CCC[C@H]4C(=O)N[C@H](C(=O)N=[S@@](C)(=O)Cc4cc5cc(c4)OCCCCOc4cc(F)ccc4-c4nc(ncc4F)N5)C(C)C)cc3)c2)c1
[reply] 100 to 1000 nM

[ask] # returns recorded AC50 (system: SUM149) for CCCNC(=O)Nc1cccc(S(=O)(=O)Nc2cccc([C@@H](CC(=O)[O-])NC(=O)Nc3ccc(NC(=O)NCCOCCOCCOCCC(=O)N[C@H](C(=O)N[C@@H](CCCNC(N)=O)C(=O)N=[S@@](C)(=O)Cc4cc5cc(c4)OCCCCOc4cc(F)ccc4-c4nc(ncc4F)N5)C(C)C)cc3)c2)c1.[Na+]
[reply] 11 to 100 nM

[ask] # returns recorded AC50 (system: SUM149) for CCCNC(=O)Nc1cccc(S(=O)(=O)Nc2cccc([C@@H](CC(=O)O)NC(=O)Nc3ccc(NC(=O)NCCOCCOCCOCCC(=O)N[C@@H](CC(=O)O)C(=O)N4CCC[C@H]4C(=O)N[C@H](C(=O)N=S(C)(=O)Cc4cc5cc(c4)OCCCCOc4cc(F)ccc4-c4nc(ncc4F)N5)C(C)C)cc3)c2)c1 (relative stereo)
[reply] 100 to 1000 nM

[ask] # returns recorded AC50 (system: SUM149) for CCCNC(=O)Nc1cccc(S(=O)(=O)Nc2cccc([C@@H](CC(=O)O)NC(=O)Nc3ccc(NC(=O)NCCN(C)CCN(C)CCN(C)CC(=O)N[C@@H](CC(N)=O)C(=O)N4CCC[C@H]4C(=O)N[C@H](C(=O)N=[S@@](C)(=O)Cc4cc5cc(c4)O[C@@H](C)CCOc4cc(F)ccc4-c4nc(ncc4F)N5)C(C)C)cc3)c2)c1 (single isomer, unassigned)
[reply] 100 to 1000 nM

[ask] # returns recorded AC50 (system: SUM149) for CCCNC(=O)Nc1cccc(S(=O)(=O)Nc2cccc([C@@H](CC(=O)O)NC(=O)Nc3ccc(NC(=O)NCCOCCOCCOCCC(=O)N[C@@H](CC(=O)O)C(=O)N4CCC[C@H]4C(=O)N[C@H](C(=O)N=[S@@](C)(=O)Cc4cc5nc(c4)OCCCOc4cc(F)ccc4-c4cc(ncc4F)N5)C(C)C)cc3)c2)c1 (racemic)
[reply] 100 to 1000 nM

###

Test system: 786-O
methodSummary: Cytotoxicity assay (Version 2, automated, AC50) with/without neutrophil elastase
Assay type: cell-based, human
measurementConditions: without (−) neutrophil elastase, Version 2, activity concentration at −50%
Give AC50 for every item shown.

[ask] Bench note: what AC50 did CCCNC(=O)Nc1cccc(S(=O)(=O)Nc2cccc([C@@H](CC(=O)O)NC(=O)Nc3ccc(NC(=O)NCCN(C)CCN(C)CCN(C)CC(=O)N[C@@H](CC(N)=O)C(=O)N4CCC[C@H]4C(=O)N[C@H](C(=O)N=S(C)(=O)Cc4cc5nc(c4)OCCCOc4cc(F)ccc4-c4cc(ncc4F)N5)C(C)C)cc3)c2)c1 (mixture of isomers) show?
[reply] 0.1 to 1 µM

[ask] Bench note: what AC50 did CCCNC(=O)Nc1cccc(S(=O)(=O)Nc2cccc([C@@H](CC(=O)O)NC(=O)Nc3ccc(NC(=O)N(C)CCN(C)CCN(C)CC(=O)N[C@@H](CC(N)=O)C(=O)N4CCC[C@H]4C(=O)N[C@H](C(=O)N=S(C)(=O)Cc4cc5cc(c4)OC(C)CCOc4cc(F)ccc4-c4nc(ncc4F)N5)C(C)C)cc3)c2)c1 (relative stereo) show?
[reply] ≤ 0.01 µM

[ask] Bench note: what AC50 did CCCNC(=O)Nc1cccc(S(=O)(=O)Nc2cccc([C@H](CC(=O)O)NC(=O)Nc3ccc(NC(=O)NCCOCCOCCOCCC(=O)NCCCC[C@H](NC(=O)CCOCCOCCOCCNC(=O)Nc4ccc(NC(=O)N[C@@H](CC(=O)O)c5cccc(NS(=O)(=O)c6cccc(NC(=O)NCCC)c6)c5)cc4)C(=O)NCCN(C)CCN(C)CCN(C)CC(=O)N[C@@H](CC(N)=O)C(=O)N4CCC[C@H]4C(=O)N[C@H](C(=O)N=[S@@](C)(=O)Cc4cc5cc(c4)O[C@@H](C)CCOc4cc(F)ccc4-c4nc(ncc4F)N5)C(C)C)cc3)c2)c1 (relative stereo) show?
[reply] > 1 µM

[ask] Bench note: what AC50 did CCCNC(=O)Nc1cccc(S(=O)(=O)Nc2cccc([C@@H](CC(=O)[O-])NC(=O)Nc3ccc(NC(=O)NCCOCCOCCOCCC(=O)N[C@@H](CC(=O)[O-])C(=O)N4CCC[C@H]4C(=O)N[C@H](C(=O)N=[S@@](C)(=O)Cc4cc5cc(c4)OCCCCOc4cc(F)ccc4-c4nc(ncc4F)N5)C(C)C)cc3)c2)c1.[Na+].[Na+] show?
[reply] > 1 µM

[ask] Bench note: what AC50 did CCCNC(=O)Nc1cccc(S(=O)(=O)Nc2cccc([C@@H](CC(=O)O)NC(=O)Nc3ccc(NC(=O)NCCOCCOCCOCCC(=O)NCCNC(=O)CC[C@H](NC(=O)CCCC(=O)NCCN(C)CCN(C)CCN(C)CC(=O)N[C@@H](CC(N)=O)C(=O)N4CCC[C@H]4C(=O)N[C@H](C(=O)N=[S@@](C)(=O)Cc4cc5cc(c4)OCCCCOc4cc(F)ccc4-c4nc(ncc4F)N5)C(C)C)C(=O)NCCNC(=O)CCOCCOCCOCCNC(=O)Nc4ccc(NC(=O)N[C@H](CC(=O)O)c5cccc(NS(=O)(=O)c6cccc(NC(=O)NCCC)c6)c5)cc4)cc3)c2)c1 show?
[reply] > 1 µM

[ask] Bench note: what AC50 did CCCNC(=O)Nc1cccc(S(=O)(=O)Nc2cccc([C@@H](CC(=O)[O-])NC(=O)Nc3ccc(NC(=O)NCCOCCOCCOCCC(=O)N[C@@H](C)C(=O)N(C)[C@@H](C)C(=O)N[C@@H](CC(=O)N=[S@@](C)(=O)Cc4cc5cc(c4)OCCCCOc4cc(F)ccc4-c4nc(ncc4F)N5)C(N)=O)cc3)c2)c1.[Na+] show?
[reply] > 1 µM

[ask] Bench note: what AC50 did CCCNC(=O)Nc1cccc(S(=O)(=O)Nc2cccc([C@@H](CC(=O)O)NC(=O)Nc3ccc(NC(=O)NCCOCCOCCOCCC(=O)NCCCC[C@H](NC(=O)CCOCCOCCOCCNC(=O)Nc4ccc(NC(=O)N[C@H](CC(=O)O)c5cccc(NS(=O)(=O)c6cccc(NC(=O)NCCC)c6)c5)cc4)C(=O)NCCN(C)CCN(C)CCN(C)CC(=O)N[C@@H](CC(N)=O)C(=O)N4CCC[C@H]4C(=O)N[C@H](C(=O)N=[S@@](C)(=O)Cc4cc5cc(c4)O[C@@H](C)CCOc4cc(F)ccc4-c4nc(ncc4F)N5)C(C)C)cc3)c2)c1 (relative stereo) show?
[reply] > 1 µM

[ask] Bench note: what AC50 did CCCNC(=O)Nc1cccc(S(=O)(=O)Nc2cccc([C@H](CC(=O)O)NC(=O)Nc3ccc(NC(=O)NCCN(C)CCN(C)CCN(C)CC(=O)N[C@@H](CC(N)=O)C(=O)N4CCC[C@H]4C(=O)N[C@H](C(=O)N=S(C)(=O)Cc4cc5nc(c4)OCCCOc4cc(F)ccc4-c4cc(ncc4F)N5)C(C)C)cc3)c2)c1 (mixture of isomers) show?
[reply] 0.1 to 1 µM

[ask] Bench note: what AC50 did CCCNC(=O)Nc1cccc(S(=O)(=O)Nc2cccc([C@@H](CC(=O)O)NC(=O)Nc3ccc(NC(=O)NCCOCCOCCOCCC(=O)N[C@@H](CC(=O)OCCCCN(C)C)C(=O)N4CCC[C@H]4C(=O)N[C@H](C(=O)N=S(C)(=O)Cc4cc5cc(c4)OCCCCOc4cc(F)ccc4-c4nc(ncc4F)N5)C(C)C)cc3)c2)c1 (single isomer, unassigned) show?
[reply] > 1 µM

[ask] Bench note: what AC50 did CCCNC(=O)Nc1cccc(S(=O)(=O)Nc2cccc([C@@H](CC(=O)O)NC(=O)Nc3ccc(NC(=O)NCCOCCOCCOCCC(=O)NCCCC[C@H](NC(=O)CCOCCOCCOCCNC(=O)Nc4ccc(NC(=O)N[C@H](CC(=O)O)c5cccc(NS(=O)(=O)c6cccc(NC(=O)NCCC)c6)c5)cc4)C(=O)NCCOCCOCCOCCC(=O)N[C@@H](CC(=O)O)C(=O)N4CCC[C@H]4C(=O)N[C@H](C(=O)N=[S@](C)(=O)Cc4cc5cc(c4)O[C@H](C)CCOc4cc(F)ccc4-c4nc(ncc4F)N5)C(C)C)cc3)c2)c1 (relative stereo) show?
[reply] > 1 µM
